System: Streptococcus sp. 'group A'
Assay: Streptococcus pyogenes SK(-)GAS viability under kanamycin – luminescence, BacTiterGlo, confirmation, counter-screen for streptokinase expression inhibitor project, dose response (AID 1900)
Assay type: functional, organism-based
The source made the active and inactive calls.
reportedMetric: EC50

# compound, testedSystem, result
data = [
    ("CCc1nnc(NS(=O)(=O)c2ccc(NCc3cc(Cl)cc(Cl)c3O)cc2)s1", "Streptococcus sp. 'group A'", "29.5 µM (active)"),
    ("COc1ccc(-c2cc3ncnc(Cl)c3s2)cc1", "Streptococcus sp. 'group A'", "9.73 µM (active)"),
    ("CC1C(=O)C(C)C(c2cc(Cl)ccc2O)NC1c1cc(Cl)ccc1O (configuration not stated)", "Streptococcus sp. 'group A'", "1.4 µM (active)"),
    ("CN(C)/C=C(\\C=N\\OCc1ccc(Cl)cc1Cl)C(=O)Nc1ccc(Cl)c(Cl)c1", "Streptococcus sp. 'group A'", "0.618 µM (active)"),
    ("Cc1ncc(CO)c(/C=N/NC(=O)c2cc(Br)ccc2O)c1O", "Streptococcus sp. 'group A'", "1.39 µM (active)"),
    ("COc1ccccc1-n1c(O)cc(=O)nc1SCC(=O)Nc1ccc(C)cc1", "Streptococcus sp. 'group A'", "29.9 µM (active)"),
    ("Brc1cc(-c2ccccc2)nc(-c2ccccc2)n1", "Streptococcus sp. 'group A'", "> 150 µM (not active)"),
]

* * *

Target: UniProt:P33261
Sequence (P33261 whole entry): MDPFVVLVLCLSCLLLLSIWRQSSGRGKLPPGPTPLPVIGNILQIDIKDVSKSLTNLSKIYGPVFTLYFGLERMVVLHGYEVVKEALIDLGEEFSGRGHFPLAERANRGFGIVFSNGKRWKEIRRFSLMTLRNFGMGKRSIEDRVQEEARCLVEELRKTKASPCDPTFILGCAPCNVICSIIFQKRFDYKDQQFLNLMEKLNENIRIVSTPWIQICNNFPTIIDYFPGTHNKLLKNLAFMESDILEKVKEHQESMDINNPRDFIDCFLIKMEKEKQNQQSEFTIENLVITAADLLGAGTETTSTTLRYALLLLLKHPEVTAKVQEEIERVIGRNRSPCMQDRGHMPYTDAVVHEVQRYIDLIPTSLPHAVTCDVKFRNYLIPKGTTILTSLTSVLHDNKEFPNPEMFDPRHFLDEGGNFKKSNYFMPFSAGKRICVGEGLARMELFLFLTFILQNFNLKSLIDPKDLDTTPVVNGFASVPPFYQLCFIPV
Assay: Cytochrome panel assay with activity outcomes. Panel member name: p450-cyp2c19 Compounds with AC50 equal or less than 10 uM are considered active
Assay type: functional
Settings: read-out: AC50

# molecule, AC50
records = [
    ("C[C@H](NC(=O)/C(C#N)=C/c1ccc(O)c(O)c1)c1ccccc1", "31.6 µM (inconclusive)"),
    ("CCOCCn1c(CN(Cc2ccccc2)Cc2ccccc2)nc2c1c(=O)[nH]c(=O)n2C", "17.8 µM (inconclusive)"),
    ("Clc1ccc2c(c1)N(CCCN1CCCC13CCCCC3)c1ccccc1S2", "5.01 µM (inconclusive)"),
    ("Cc1cccc(NC(=O)c2cc(N3C(=O)CCC3=O)ccc2Cl)n1", "28.2 µM (inconclusive)"),
    ("COC(=O)[C@@H]1CC[C@H](C)[C@@H](c2ccc(C)cc2)N1C(=O)c1ccc(/C=N\\OC[C@@H](O)COCc2ccco2)cc1", "2.51 µM (inconclusive)"),
    ("CC(C)OCCCNC(=O)C1CC(=O)N(C2CCCCCCC2)C1 (stereo not drawn)", "17.8 µM (inconclusive)"),
    ("N#CN(CC(N)=O)c1nc(N2CCCCC2)nc(N2CCCCC2)n1", "22.4 µM (inconclusive)"),
    ("CCOC(=O)N1CCC(NC(=O)CCc2nc(C3=CCN(C)CC3)no2)CC1", "11.2 µM (inconclusive)"),
]

* * *

Biological target: Eukaryotic translation initiation factor 4E (Mus musculus, UniProt P63073)
Sequence (P63073 whole entry): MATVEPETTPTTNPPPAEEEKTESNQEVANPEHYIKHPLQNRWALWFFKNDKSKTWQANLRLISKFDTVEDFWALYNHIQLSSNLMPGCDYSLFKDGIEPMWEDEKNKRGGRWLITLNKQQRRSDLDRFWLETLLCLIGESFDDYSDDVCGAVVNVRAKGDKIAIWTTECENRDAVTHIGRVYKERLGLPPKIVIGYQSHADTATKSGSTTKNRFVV
Experiment: blockers of eIF4G binding by eIF4E – biochemical, TR-FRET, dose response (AID 855);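 note: potency for disrupting eIF4E binding to eIF4GI seen as loss of FRET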
Assay type: functional
Active and inactive are the calls of the source.

# compound, IC50
measured = [
    ("COc1ccccc1N1CCN(S(=O)(=O)Cc2ccccc2Cl)CC1", "> 64 µM (inactive)"),
    ("CCC(=O)NC(=S)Nc1ccc(NC(=O)c2ccc([N+](=O)[O-])cc2)cc1", "> 64 µM (inactive)"),
    ("O=C(Nc1ccc(CN2CCOCC2)cc1)c1ccc(-c2ccc(Cl)cc2Cl)o1", "50 µM (inactive)"),
    ("CCOC(=O)C(C)Sc1ccc2nnc(-c3ccc(F)cc3)n2n1 (stereo unspecified)", "> 64 µM (inactive)"),
    ("C=CCn1c(SCC(=O)Nc2ccc(-c3nc4ccc(C)cc4s3)cc2)nnc1-c1ccccc1", "> 64 µM (inactive)"),
    ("O=C(COc1ccccc1Cl)c1ccc[nH]1", "50 µM (inactive)"),
]

* * *

IC50 for assorted compounds
Target: Glucose-6-phosphate 1-dehydrogenase (Homo sapiens, UniProt P11413)
Sequence (P11413 whole entry): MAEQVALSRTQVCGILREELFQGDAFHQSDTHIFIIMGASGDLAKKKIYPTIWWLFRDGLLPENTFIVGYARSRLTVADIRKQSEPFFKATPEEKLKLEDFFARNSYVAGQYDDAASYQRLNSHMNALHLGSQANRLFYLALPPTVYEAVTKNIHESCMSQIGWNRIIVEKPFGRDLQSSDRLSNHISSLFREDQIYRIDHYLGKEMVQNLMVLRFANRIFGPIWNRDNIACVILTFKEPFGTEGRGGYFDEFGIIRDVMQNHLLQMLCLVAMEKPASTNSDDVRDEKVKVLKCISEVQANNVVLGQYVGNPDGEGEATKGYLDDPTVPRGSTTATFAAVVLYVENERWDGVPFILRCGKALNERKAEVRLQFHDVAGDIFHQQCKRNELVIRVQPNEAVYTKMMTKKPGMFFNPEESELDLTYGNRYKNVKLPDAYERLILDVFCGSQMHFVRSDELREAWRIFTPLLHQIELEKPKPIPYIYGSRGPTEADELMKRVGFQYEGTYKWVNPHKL
Assay: inhibition of Homo sapiens G6PD, dose series – biochemical, fluorescence, selectivity assay for P. falciparum G6PD inhibitor project, dose response (AID 504792)
Format: functional
The source made the active and inactive calls.
reportedMetric: IC50

# compound, result
data = [
    ("Cc1ccc(Cl)cc1N=C1C=C(NS(=O)(=O)c2cccs2)c2ccccc2C1=O", "> 80 µM (inactive)"),
    ("CCC(CO)N1C(C)=CC(=Cc2sc3ccccc3[n+]2Cc2ccccc2)C=C1C (centres undefined)", "> 80 µM (inactive)"),
    ("CCC1(C)CC(C(N)=S)CCO1 (centres undefined)", "> 80 µM (inactive)"),
    ("COc1c2ccoc2c(OCC=C(C)C)c2oc(=O)ccc12", "> 80 µM (inactive)"),
]

* * *

Assay: Luminescence Cell-Based Dose Confirmation HTS to Identify Inhibitors of Platelet Dense Granule Release. [Related pubchem assays: 1663 (Primary HTS), 1678 (Summary of Project)]
Assay type: functional
Calls of active or inactive are those of the source.
EC50 for assorted compounds

# compound, EC50
data = [
    ("COc1cc2c(cc1OC)-c1cc(NC3CCCCC3)nc(=O)n1CC2", "2.24 µM (active)"),
    ("CC(C)n1nc(C(=O)Nc2ccccc2N2CCOCC2)c2ccccc2c1=O", "26.7 µM (active)"),
    ("COc1cccc(Oc2c(C)oc3c(CN4CCCCC4)c(O)ccc3c2=O)c1", "19.2 µM (active)"),
    ("COC(=O)C1=C(C)N=C2SCCC(=O)N2C1c1ccc(OC(=O)c2ccco2)cc1 (stereo unspecified)", "> 112 µM (not active)"),
    ("O=C(COc1ccc(Cl)cc1)Nc1ccc(Cc2ccncc2)cc1", "> 112 µM (not active)"),
    ("O=C(Nc1ccc(Cl)cn1)c1ccc(-c2ccc(Cl)c(Cl)c2)o1", "> 112 µM (not active)"),
]

* * *

Experiment: NIH3T3 cell viability loss – ATP luminescence, mouse fibroblasts, counter-screen, dose response (AID 2010);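 note: cells exposed to compound for about 90 hours before reading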
Assay type: functional, cell-based
Activity calls are given as the source filed them.
EC50 for assorted compounds
reportedMetric: EC50

# compound, result
measured = [
    ("COc1ccc(CC(=O)NCC2CCCN(Cc3ccc(SC)cc3)C2)cc1 (stereo not given)", "> 60 µM (not active)"),
    ("CC(C)=CCCC(C)CN1CCC(n2nccc2NC(=O)c2ccc3c(c2)OCO3)CC1 (stereo not given)", "9.11 µM (active)"),
    ("Cc1cccc(Nc2nc(-c3ccncc3)cs2)c1", "6.1 µM (active)"),
    ("Cc1cc(C)c(OCC(=O)Nc2nc(-c3ccccn3)cs2)c(C)c1", "8.87 µM (active)"),
    ("CCCN(CCC)C(=O)c1cc([N+](=O)[O-])cc2c1-c1ccc([N+](=O)[O-])cc1C2=C(C#N)C#N", "10.7 µM (active)"),
]

* * *

IC50 for assorted compounds
Target: Nonstructural protein 1 (Influenza A virus, UniProt Q194T2)
Sequence (Q194T2 whole entry): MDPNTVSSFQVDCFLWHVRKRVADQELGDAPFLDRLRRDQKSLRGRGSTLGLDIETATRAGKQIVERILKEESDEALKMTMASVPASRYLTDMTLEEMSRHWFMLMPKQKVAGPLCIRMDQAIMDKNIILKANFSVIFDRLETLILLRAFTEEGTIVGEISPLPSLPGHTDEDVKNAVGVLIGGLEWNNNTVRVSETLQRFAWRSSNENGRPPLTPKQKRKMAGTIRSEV
Format: functional, Influenza A virus (A/California/07/2009(H1N1))
Calls of active or inactive are those of the source.

# cpdSmiles, testedSystem, IC50
rows = [
    ("CCN(CC)c1ccc(C(=S)N2CCN(c3ccccc3)CC2)cc1", "Nonstructural protein 1 (Influenza A virus, UniProt Q194T2)", "> 100 µM (active)"),
    ("Oc1c(CN2CCCC2)cc(COCc2ccccc2)c2cccnc12", "Nonstructural protein 1 (Influenza A virus, UniProt Q194T2)", "3.78 µM (active)"),
    ("Cc1ncc(CO)c(/C=N/NC(=O)c2cc(Br)ccc2O)c1O", "Nonstructural protein 1 (Influenza A virus, UniProt Q194T2)", "11.3 µM (active)"),
    ("COc1cc(/C=N/NC(=S)NCCN2CCOCC2)cc(OC)c1O", "Nonstructural protein 1 (Influenza A virus, UniProt Q194T2)", "70.1 µM (active)"),
    ("Cc1ccccc1/C(O)=C(\\C#N)N=Nc1c(C)n(C)n(-c2ccccc2)c1=O", "Nonstructural protein 1 (Influenza A virus, UniProt Q194T2)", "10.9 µM (active)"),
]

* * *

Target: Galanin receptor type 3 (Homo sapiens, UniProt O60755)
Sequence (O60755 whole entry): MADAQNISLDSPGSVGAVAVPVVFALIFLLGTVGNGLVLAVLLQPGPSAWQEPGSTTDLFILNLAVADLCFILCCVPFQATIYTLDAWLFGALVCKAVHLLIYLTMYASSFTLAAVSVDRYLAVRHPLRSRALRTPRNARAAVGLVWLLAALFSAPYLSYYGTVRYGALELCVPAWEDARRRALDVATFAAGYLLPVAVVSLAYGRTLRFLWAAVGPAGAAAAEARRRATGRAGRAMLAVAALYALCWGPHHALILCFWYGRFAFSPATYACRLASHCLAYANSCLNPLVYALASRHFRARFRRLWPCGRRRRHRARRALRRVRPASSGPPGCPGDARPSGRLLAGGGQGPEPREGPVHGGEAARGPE
Experiment: Fluorescence-based cell-based primary high throughput dose response assay to identify antagonists of the Galanin Receptor 3 (GalR3).
Assay type: functional
Calls of active or inactive are those of the source.
Outcome codes: active, inactive

# molecule, labelClass
records = [
    ("CC(C)Cn1c(N)c(C(=O)COC(=O)/C=C/c2ccccc2)c(=O)n(C)c1=O", "inactive"),
    ("CC(C)(C)c1cc([N+](=O)[O-])cc(C(C)(C)C)c1O", "active"),
    ("O=C(CSc1nnc(-c2cccnc2)s1)Nc1ccnc2ccccc12", "active"),
    ("CC(C)(C)c1ccc(-n2ncc3c2CCCC3NC(=O)C2(C(N)=O)CC2)cc1 (centres undefined)", "active"),
]
